Test: qHTS assay to identify small molecule antagonists of the estrogen related receptor (ERR) signaling pathway (AID 1224819; also: nearly all actives have a fitted effect of over 50% in size)
Details: ERR reporter cell line, luciferase inhibition; series mostly up to 46.1 µM
Results filed as inconclusive are left out. Calls of active or inactive are those of the source. Calls follow the shape of the dose curve; as a rule, active = well fitted inhibition curve with a large enough effect in the repeat runs; inconclusive = weak or mixed curves; inactive = no such curve, though single readings can be large or run the other way.
Valid outcomes are listed here; reply with one: y = active, n = inactive

* COC(=O)C(N)Cc1ccc(Cl)cc1 (stereo not given) | n

Exercise: What classification did O=C1Cc2c([nH]c3ccc(Br)cc23)-c2ccccc2N1 end up with in this test?
Solution: n

Exercise: Dear colleague, could you share the recorded outcome for NCC1OC(OC2C(O)[C@@H](OC3C(O)C(N)CC(N)C3OC3OC(CO)C(O)C(O)C3N)O[C@@H]2CO)C(N)C(O)C1O (stereo not given in full) when you have a moment?
Solution: n

Exercise: Lab log entry: CCCC(=O)NCCc1c2n(c3ccc(OC)cc13)CCCc1ccccc1-2 — outcome as called in the assay?
Solution: y

Exercise: Recorded test call requested for CC1CN(S(=O)(=O)c2cccc3cnccc23)CCN1 (stereo not given)
Solution: n

Exercise: Hi team, can someone confirm the assay call for CC1CNCCN1S(=O)(=O)c1cccc2cnccc12 (stereo not given) ?
Solution: n

###

Experiment: qHTS assay to test for compound auto fluorescence at 460 nm (blue) in HepG2 cells (AID 720687); also: % is scaled to controls: 0 for no effect and ±100 for the full control effect
Conditions: autofluorescence 405/460 nm, 1 h; series mostly up to 46 µM
Activity calls are given as the source filed them. Calls follow the shape of the dose curve; as a rule, active = well fitted curve in the direction sought with a large enough effect in the repeat runs; inconclusive = weak or mixed curves; inactive = flat fitted curve, though single readings scatter.
Thanks in advance; please answer with one of these: yes (active), no (inactive)

Worked cases, answers included:
- CCN(CC)CCOC[C@H]1O[C@@H](O)[C@H](OCCN(CC)CC)[C@@H](O)[C@@H]1O: no
- Cc1c(N)nc([C@H](CC(N)=O)NC[C@H](N)C(N)=O)nc1C(=O)N[C@H](C(=O)N[C@H](C)[C@@H](O)[C@H](C)C(=O)N[C@H](C(=O)NCCc1nc(-c2nc(C(=O)NCCCCN=C(N)N)cs2)cs1)[C@@H](C)O)[C@@H](O[C@@H]1O[C@@H](CO)[C@@H](O)[C@H](O)[C@@H]1O[C@H]1O[C@H](CO)[C@@H](O)[C@H](OC(N)=O)[C@@H]1O)c1cnc[nH]1: no
- O=C1C2CC3CC1CC(O)(C3)C2: no

Then this molecule:
Exercise: Per the assay record, what outcome was assigned to O=C(O)C[C@H](O)C[C@H](O)/C=C/c1c(C2CC2)nc2ccccc2c1-c1ccc(F)cc1 ?
Solution: no

###

Assay: qHTS assay to identify small molecule agonists of the RXR signaling pathway - cell viability counter screen (AID 1159529); also: nearly all actives have a fitted effect of over 50% in size
Conditions: RXR-alpha-bla HEK293T viability, CellTiter-Glo, 16 h; series mostly up to 76.8 µM
Results filed as inconclusive are left out. Activity calls are given as the source filed them. Calls come from the whole dose curve; as a rule, active = well fitted cell-killing curve with a large enough effect in the repeat runs; inconclusive = weak or mixed curves, or effect the other way; inactive = no such curve, though single readings can be large or run the other way.
One label from this list, please: 1 for active, -1 for inactive

Sample answers from the record:
• CC(O)(c1ccc(Cl)cc1)c1ccc(Cl)cc1 = 1
• CCC(O)CO (configuration not stated) = -1
• C=CCc1cc(S(=O)(=O)c2ccc(O)c(CC=C)c2)ccc1O = -1
• Clc1ccc2c(Cl)ccnc2c1 = -1

Exercise: Just curious, what result did C=COCCCC get here?
Solution: -1

Exercise: Dear colleague, could you share the recorded outcome for Brc1cc(Br)cc(Br)c1 when you have a moment?
Solution: -1

Exercise: Which result was noted for this compound in the test: Cc1ccc(S(=O)(=O)C(I)I)cc1
Solution: 1

Exercise: Which outcome did this test record for the compound Cc1c(Cl)c(=O)oc2cc(O)ccc12 ?
Solution: -1

Exercise: Please state the recorded outcome for this compound: O=C1CCCCCCCCCCCCCC1
Solution: -1

Exercise: Recorded test outcome, item CCCCC/C=C\C=C\C(=O)OCC
Solution: 1

Exercise: Would you mind telling me which call this test gave C1CCSC1 ?
Solution: -1

Exercise: Outcome? C=C1CC[C@H]2O[C@]2(C)CC[C@@H]2[C@@H]1CC2(C)C
Solution: -1

Exercise: Short answer needed: outcome of this test for NCc1ccco1 ?
Solution: -1

Exercise: What outcome does the record of this test show for NCc1cccc(C2CCN(C(=O)c3ccc(C#Cc4ccccc4F)o3)CC2)c1 ?
Solution: 1

Exercise: What outcome does the record of this test show for CCOC(=O)C1=NN(c2ccc(Cl)cc2Cl)C(C)(C(=O)OCC)C1 (configuration not stated) ?
Solution: -1

Exercise: Tell me the recorded outcome of this test for CC(CC(C)(C)C)CC(C)(C)CC(C)(C)C (configuration not stated) .
Solution: -1

Exercise: Outcome logged for O=C1OCc2ccccc21 in this assay:
Solution: -1

Exercise: Tell me the assay call for Nc1ccc2c(S(=O)(=O)O)cccc2c1S(=O)(=O)O please.
Solution: -1

###

Assay: qHTS assay to identify small molecule agonists of the estrogen receptor alpha (ER-alpha) signaling pathway in the presence of an antagonist - cell viability counter screen (AID 1259386);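 also: cells exposed to compounds for 22 h at 37 °C before the viability read; % is scaled to controls: 0 for no effect and ±100 for the full control effect; nearly all actives have a fitted effect of over 30% in size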
Details: VM7Luc4E2 viability, CellTiter-Fluor fluorescence, 22 h; series mostly up to 92.4 µM
Records with an inconclusive call do not appear. Calls of active or inactive are those of the source. Calls come from the whole dose curve; as a rule, active = well fitted cell-killing curve with a large enough effect in the repeat runs; inconclusive = weak or mixed curves, or effect the other way; inactive = no such curve, though single readings can be large or run the other way.
MEASUREMENT NAME: activity change, negative = cytotoxicity

The cases that follow already have their activity change, negative = cytotoxicity on record.
- CCCCCCCCCCCCS(=O)(=O)Cl: -0.178% [at 19 µM] (inactive)
- COc1cc2ncnc(Nc3cccc(Cl)c3)c2cc1OC: -5.87% [at 19 µM] (inactive)
- O=C(O)C[C@H](O)C[C@H](O)/C=C/c1c(C2CC2)nc2ccccc2c1-c1ccc(F)cc1: 8.43% [at 19 µM] (inactive)
- C=CC(=O)OCCOC1C2CCC1C1CC=CC12 (stereo unspecified): 0.411% [at 19 µM] (inactive)
- COc1cc(C(C)C)ccc1C: -2.95% [at 19 µM] (inactive)

Exercise: GET /values?readout=activity change, negative = cytotoxicity&item= C=C[Si](C)(C)Cl
Solution: 0.757% [at 8.39 µM] (inactive)

###

Test: qHTS RealTime-Glo MT Cell Viability Assay in HEK293 cells - 8 hour (AID 1224887); also: nearly all actives have a fitted effect of over 50% in size
Details: RealTime-Glo luminescence; series mostly up to 76.8 µM
Results filed as inconclusive are left out. Calls of active or inactive are those of the source. Calls come from the whole dose curve; as a rule, active = well fitted cell-killing curve with a large enough effect in the repeat runs; inconclusive = weak or mixed curves, or effect the other way; inactive = flat fitted curve, though single readings scatter.
Outcome (select one): 1 (active), -1 (inactive)

Illustrative cases are given below, each with its answer.
* Cc1ccc(C=O)cc1 | -1
* c1ccc(-c2nc3ccccc3[nH]2)cc1 | 1
* O=C(Nc1ccccc1)c1cc(Cl)ccc1O | -1

Exercise: I would be grateful if you could indicate the recorded call for Cc1cccc(C)c1C .
Solution: -1

###

Experiment: qHTS assay to identify small molecule that activate the aryl hydrocarbon receptor (AhR) signaling pathway - cell viability counter screen (AID 743086);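 also: HepG2 liver cells carrying the AhR DRE luciferase reporter; % is scaled to controls: 0 for no effect and ±100 for the full control effect; nearly all actives have a fitted effect of over 45% in size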
Details: HepG2-AhR-luc viability, CellTiter-Fluor, 24 h; series mostly up to 70.3 µM
Records with an inconclusive call do not appear. The source made the active and inactive calls. The call rests on the fitted dose curve; in most records, active means well fitted cell-killing curve with a large enough effect in the repeat runs; inconclusive means weak or mixed curves, or effect the other way; inactive means flat fitted curve, though single readings scatter.
Respond only with the outcome that fits, drawn from label 1 (active), label 0 (inactive)

Exercise: Dear all, I need the recorded test outcome for CSCCC(N)C(=O)O (stereo not given) , thank you.
Solution: label 0

Exercise: Which outcome was entered for the compound COc1ccc(/C=N/NC(=O)c2ccncc2)c(C(=O)O)c1OC in this test?
Solution: label 0

Exercise: # fetch the recorded call for COc1cc2c(cc1OC)[C@@H](Cc1cc(OC)c(OC)c(OC)c1)[N+](C)(CCCOC(=O)CC/C=C/CCC(=O)OCCC[N+]1(C)CCc3cc(OC)c(OC)cc3[C@H]1Cc1cc(OC)c(OC)c(OC)c1)CC2 (stereo not given in full) here
Solution: label 0

Exercise: I'd appreciate the recorded outcome for Nc1cc(Cl)c(NC2=NCCN2)c(Cl)c1 from this test.
Solution: label 0

Exercise: Which outcome was assigned to CCCCCCCC/C=C\CCCCCCCC(=O)N(CCO)CCO in this test?
Solution: label 0

###

Assay: A CellTox Green Cytotoxicity Assay to monitor cytotoxicity in HepG2 cells - 32 hour (AID 1224883); also: nearly all actives have a fitted effect of over 50% in size
Conditions: CellTox Green fluorescence; series mostly up to 76.8 µM
Inconclusive results are not listed. Calls of active or inactive are those of the source. Calls come from the whole dose curve; as a rule, active = well fitted activation curve with a large enough effect in the repeat runs; inconclusive = weak or mixed curves; inactive = flat fitted curve, though single readings scatter.
Pick from active, inactive when you respond.

* Cn1c(=O)[nH]c2ncn(C)c2c1=O | inactive
* COc1cc([C@@H]2c3cc4c(cc3[C@@H](O[C@@H]3O[C@@H]5CO[C@@H](C)O[C@H]5[C@H](O)[C@H]3O)[C@H]3COC(=O)[C@H]23)OCO4)cc(OC)c1O | active
* CC/C=C(\C)C=O | inactive

Exercise: Write down the call the test reported for this molecule. Item: Cc1cc(C)c(O)c(C(C)(C)C)c1
Solution: inactive

Exercise: Given CC(c1cc(C(C)(C)C)cc(C(C)(C)C)c1O)c1cc(C(C)(C)C)cc(C(C)(C)C)c1O , state the outcome it received in this test.
Solution: inactive

Exercise: Field: outcome | Entry: c1ccc2cc3c4ccccc4c4ccccc4c3cc2c1
Solution: active

Exercise: Query: recorded result category for CC(C)=CCC[C@H](C)CC=O in this test
Solution: inactive

Exercise: Answer briefly: the call reported for CC(=O)CC(N)=O in this assay.
Solution: inactive

Exercise: Please let me know the test result on file for Nc1c(Br)cc([N+](=O)[O-])cc1Br .
Solution: inactive

Exercise: Kindly provide the recorded test outcome for the following molecule: C=COCCCC
Solution: inactive

Exercise: Name the outcome recorded for CN1CC[C@H](c2c(O)cc(O)c3c(=O)cc(-c4ccccc4Cl)oc23)[C@H](O)C1 in the assay.
Solution: active

Exercise: Which outcome did this test record for the molecule Cc1c(Cl)c(=O)oc2cc(O)ccc12 ?
Solution: inactive

Exercise: Tell me the assay call for N#Cc1ccc(C/C(=N/NC(=O)Nc2ccc(OC(F)(F)F)cc2)c2cccc(C(F)(F)F)c2)cc1 please.
Solution: inactive

Exercise: I'd appreciate the recorded outcome for CCOC(=O)C1=NN(c2ccc(Cl)cc2Cl)C(C)(C(=O)OCC)C1 (stereo not given) from this test.
Solution: inactive

Exercise: Name the outcome recorded for CN1CCN(CCCN2c3ccccc3Sc3ccc(C(F)(F)F)cc32)CC1 in the assay.
Solution: active

Exercise: Would you mind telling me which call this test gave Cc1ccc2nc(-c3ccc(N)cc3)sc2c1S(=O)(=O)O ?
Solution: inactive

Exercise: Per the records of this test, what outcome belongs to O=C(CCCCCCCCc1cccnc1)N1CCC(C=C(c2ccccc2)c2ccccc2)CC1 ?
Solution: inactive

Exercise: Which result was noted for this molecule in the test: CCc1c(C)cc(N)c(CC)c1N
Solution: inactive
